target: T1, trypsin isolated from bovine pancreas (bovine, UniProt P00760 24-246); test: column 9: trypsin activity assay, 0.25 nM trypsin
T1 construct: also called bovine trypsin
T1 sequence (P00760 24-246): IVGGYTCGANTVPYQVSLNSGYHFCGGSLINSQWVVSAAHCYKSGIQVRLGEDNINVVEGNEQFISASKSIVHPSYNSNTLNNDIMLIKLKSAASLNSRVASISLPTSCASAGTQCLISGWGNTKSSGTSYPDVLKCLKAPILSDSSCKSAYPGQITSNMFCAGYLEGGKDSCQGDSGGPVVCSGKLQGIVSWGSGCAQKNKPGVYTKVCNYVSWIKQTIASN
pIC50: −log10 of the molar value.
Exercise: for every item that follows, state its recorded pIC50.

These recorded examples may help you get a feel for the data.
8B7 (antibody, V domains shown) VH: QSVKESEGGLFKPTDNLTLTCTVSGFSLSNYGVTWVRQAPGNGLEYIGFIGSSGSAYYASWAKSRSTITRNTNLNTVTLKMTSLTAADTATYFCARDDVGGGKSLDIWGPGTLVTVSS VL: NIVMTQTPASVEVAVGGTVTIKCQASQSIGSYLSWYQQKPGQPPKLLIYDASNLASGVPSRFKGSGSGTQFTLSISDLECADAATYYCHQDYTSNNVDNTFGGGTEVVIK :: < 7.00
10C8 (antibody, V domains shown) VH: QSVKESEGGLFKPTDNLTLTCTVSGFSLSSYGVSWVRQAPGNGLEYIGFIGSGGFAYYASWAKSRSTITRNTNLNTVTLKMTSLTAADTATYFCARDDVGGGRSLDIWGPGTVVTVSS VL: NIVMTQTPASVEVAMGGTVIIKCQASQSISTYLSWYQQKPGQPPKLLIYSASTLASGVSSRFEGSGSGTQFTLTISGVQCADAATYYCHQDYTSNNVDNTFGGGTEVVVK :: < 7.00

Now look at this entry.
Entry under test: 10C5 (antibody, V domains shown, Rabbit monoclonal; also called Chimeric 10C5; KLK5.10C5 (complex sample)) VH: QSLEESGGGLVKPTDTLTLTCTVSGFSLSSYGVTWVRQAPGRGLEWIGYITSNYGVSYYASWAKSRSTITRNTNLNTVTLKMTSLTAADTATYFCARENPDYGYAYDAWGPGTLVTVSV VL: AYDMTQTPASLEAAVGGTVTINCQASESISNELSWYQQKPGQPPDLLIYYASTLASGVPSRFKGSGSGTEFTLTISDLECADAATYYCAQGFGSSGVENVFGGGTEVVVK . Its pIC50 was < 7.00

Data origin, for the record: patent US20200040103A1
